Taken from ChEMBL document CHEMBL3046040.

Tested on: Human immunodeficiency virus 2
EXPERIMENT_NOTES: Antiviral activity against Human immunodeficiency virus type 2 (ISOLATE ROD) infected CEM cells assessed as inhibition of virus-induced giant cell formation after 4 days by microscopic analysis
Format: functional, organism-based
CONDITION_SUMMARY: Human immunodeficiency virus 2, ISOLATE ROD, CCRF-CEM, 96 h
READOUT: EC50 (µM)

chem_smiles=NC/C=C\Cn1ccc(N)nc1=O readout=EC50 value_units=µM rel== value_measured=78
chem_smiles=NC/C=C\Cn1cnc2c(Cl)nc(N)nc21 readout=EC50 value_units=µM rel=≥ value_measured=100
chem_smiles=NC/C=C\Cn1cnc2c(=O)[nH]c(N)nc21 readout=EC50 value_units=µM rel== value_measured=10
chem_smiles=Cc1cn(C/C=C\CN)c(=O)[nH]c1=O readout=EC50 value_units=µM rel== value_measured=41
chem_smiles=NC/C=C\Cn1cnc2c(=O)[nH]cnc21 readout=EC50 value_units=µM rel=≥ value_measured=100
chem_smiles=Cc1cn(C/C=C\CN)c(=O)nc1N readout=EC50 value_units=µM rel== value_measured=38

###

System: WI-38
EXPERIMENT_NOTES: Antiproliferative activity against Homo sapiens (human) WI38 cells by MTT assay
Type: cell-based
READOUT: IC50 (µM)

chem_smiles=Cc1cn(C/C=C\CN)c(=O)[nH]c1=O value_units=µM rel== value_measured=54.2
chem_smiles=Cc1cn(C/C=C\CN)c(=O)nc1N value_units=µM rel== value_measured=63
chem_smiles=NC/C=C\Cn1cnc2c(N)nc(N)nc21 value_units=µM rel=> value_measured=100
chem_smiles=NC/C=C\Cn1cnc2c(Cl)nc(N)nc21 value_units=µM rel=> value_measured=100
chem_smiles=NC/C=C\Cn1cnc2c(N)ncnc21 value_units=µM rel== value_measured=69.1
chem_smiles=NCCCCn1cnc2c(-n3cccc3)ncnc21 value_units=µM rel=> value_measured=100
chem_smiles=NC/C=C\Cn1cnc2c(=O)[nH]cnc21 value_units=µM rel=> value_measured=100
chem_smiles=NC/C=C\Cn1ccc(N)nc1=O value_units=µM rel== value_measured=85.2
